Where these numbers come from: the RNAGym collection of RNA variant scans (doi:10.7554/elife.90254)

B1: OR4K15 (parent)
chain: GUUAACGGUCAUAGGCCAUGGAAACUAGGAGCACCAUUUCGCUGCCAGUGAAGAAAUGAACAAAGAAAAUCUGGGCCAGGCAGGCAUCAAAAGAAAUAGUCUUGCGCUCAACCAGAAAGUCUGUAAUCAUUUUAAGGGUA

Variants of: B1
Experiment: self-cleavage, relative activity (ratio to wild type); higher = more cleavage; in vitro, sequencing; the parent is a self-cleaving ribozyme
quantity: self-cleavage

For each entry beneath this line, provide reported self-cleavage.
1. A5G C88U
2. A24G A64G
3. C109U A126G
4. A67G A125U
5. U2A A69G
6. A24G A36C
7. U100C A111U
8. A52G A111C

1.02
1.01
0.14
0.11
1.62
1.51
0.18
0
